Assay: Stability indicating HPLC assay and related substances on storage (Example 3)
Format: physicochemical
Settings: Initial
readout_type: Total Known
# do not omit the unit; it follows the number

compound | readout_type | result
CN1CC[C@]23c4c5ccc(O)c4O[C@H]2[C@@H](O[C@@H]2O[C@H](C(=O)O)[C@@H](O)[C@H](O)[C@H]2O)C=C[C@H]3[C@H]1C5 [Morphine-6-glucuronide base, morphine-6-β-D-glucuronide] | Total Known | 0.98%

API: the following record is the query input.
Answer with reported Total Known of Br.CN1CC[C@]23c4c5ccc(O)c4O[C@H]2[C@@H](O[C@@H]2O[C@H](C(=O)O)[C@@H](O)[C@H](O)[C@H]2O)C=C[C@H]3[C@H]1C5 [Morphine-6-glucuronide hydrobromide]
0.86%

* * *

# M6G Assay, Corrected for the salt form listing for each entry below
Test: Stability indicating HPLC assay and related substances on storage (Example 3)
Format: physicochemical
Settings: Initial
Return type: number; implicit unit % w/w.

compound | quantitative_result
CN1CCC23c4c5ccc(O)c4OC2C(OC2OC(C(=O)O)C(O)C(O)C2O)C=CC3C1C5.CN1CCC23c4c5ccc(O)c4OC2C(OC2OC(C(=O)O)C(O)C(O)C2O)C=CC3C1C5.O=C(O)C=CC(=O)O (centres unmarked) [Morphine-6-glucuronide fumarate] | 100.71

Answer with reported M6G Assay, Corrected for the salt form of CN1CC[C@]23c4c5ccc(O)c4O[C@H]2[C@@H](O[C@@H]2O[C@H](C(=O)O)[C@@H](O)[C@H](O)[C@H]2O)C=C[C@H]3[C@H]1C5 [Morphine-6-glucuronide base, morphine-6-β-D-glucuronide]
99.79

* * *

# Moisture listing for each entry below
Assay: Water content by Karl Fisher analysis on storage (Example 3)
Assay type: physicochemical
Conditions: Initial
Return type: number; implicit unit % w/w.

Below: 6 compounds and their reported Moisture.
compound | Moisture / % w/w
CN1CCC23c4c5ccc(O)c4OC2C(OC2OC(C(=O)O)C(O)C(O)C2O)C=CC3C1C5.CN1CCC23c4c5ccc(O)c4OC2C(OC2OC(C(=O)O)C(O)C(O)C2O)C=CC3C1C5.O=C(O)C=CC(=O)O (stereo not shown) [Morphine-6-glucuronide fumarate] | 6.80
CN1CCC23c4c5ccc(O)c4OC2C(OC2OC(C(=O)O)C(O)C(O)C2O)C=CC3C1C5.O=P(O)(O)O (stereo not shown) [Morphine-6-glucuronide phosphate] | 3.12
CN1CC[C@]23c4c5ccc(O)c4O[C@H]2[C@@H](O[C@@H]2O[C@H](C(=O)O)[C@@H](O)[C@H](O)[C@H]2O)C=C[C@H]3[C@H]1C5 [Morphine-6-glucuronide base, morphine-6-β-D-glucuronide] | 9.80
CN1CCC23c4c5ccc(O)c4OC2C(OC2OC(C(=O)O)C(O)C(O)C2O)C=CC3C1C5.CN1CCC23c4c5ccc(O)c4OC2C(OC2OC(C(=O)O)C(O)C(O)C2O)C=CC3C1C5.O=C(O)C=CC(=O)O (stereo not shown) [Morphine-6-glucuronide maleate] | 6.14
Br.CN1CC[C@]23c4c5ccc(O)c4O[C@H]2[C@@H](O[C@@H]2O[C@H](C(=O)O)[C@@H](O)[C@H](O)[C@H]2O)C=C[C@H]3[C@H]1C5 [Morphine-6-glucuronide hydrobromide] | 2.38
CN1CCC23c4c5ccc(O)c4OC2C(OC2OC(C(=O)O)C(O)C(O)C2O)C=CC3C1C5.CN1CCC23c4c5ccc(O)c4OC2C(OC2OC(C(=O)O)C(O)C(O)C2O)C=CC3C1C5.O=S(=O)(O)O (stereo not shown) [Morphine-6-glucuronide sulphate] | 3.77

Answer with reported Moisture of CN1CC[C@]23c4c5ccc(O)c4O[C@H]2[C@@H](O[C@@H]2O[C@H](C(=O)O)[C@@H](O)[C@H](O)[C@H]2O)C=C[C@H]3[C@H]1C5.Cl [Morphine-6-glucuronide hydrochloride]
4.31

src = patent US20060166900A1
